We begin with IC50 values for UniProt:P00742, as collected from the published literature.
Criterion: IC50 strictly under 80 nM. Met: Met. Not met: Not met.

Regarding `Cc1cc(C(=O)Nc2ccc(-n3ccnc3C)cc2)n(-c2ccc3cc(Cl)ccc3c2)n1` , kindly confirm whether its IC50 is beneath 80 nM.
Met

Does the reported IC50 of the following molecule sit strictly below 80 nM? `CCN1CCN=C1c1ccc(C(=O)N2CCN(S(=O)(=O)c3ccc4cc(Br)ccc4c3)CC2)cc1`
Met

Could you please tell me whether IC50 recorded for `CCC[C@@H](NC(=O)c1ccc(Cl)s1)C(=O)Nc1ccc(N2CCOCC2=O)cc1` is less than 80 nM?
Met

Here's an entry: `CN1CCCN=C1c1ccc(C(=O)N2CCN(S(=O)(=O)c3ccc4cc(Br)ccc4c3)CC2)cc1` . Is its IC50 below 80 nM?
Not met

Say whether its IC50 is strictly beneath 80 nM. Entry: `CCN(C(=O)[C@@H]1Cc2ccccc2CN1C(=O)Cc1ccc(Cl)cc1)c1ccc(N2CCOCC2=O)cc1`
Not met

Lab note: confirm whether the reported IC50 for this molecule is below 80 nM, equality not counting. molecule: `C=C(C)/C=C\c1ccc(-c2ccc(C(=O)NCC(C)C)cc2C(=O)O)c(C(=O)Nc2ccc(C(=N)N)cc2)c1`
Not met
